assay: Particle size and PDI by dynamic light scattering (Malvern Zetasizer); format: physicochemical; details: lipid/DSPC/CHOL/AVANTI 880150P 50/28/18/4, N/P 3.43
Listed next: entries and their corresponding Final size (nm).
Give a bare numeral; the unit nm is implied.

CCCCC/C=C\C/C=C\CCCCCCCCOCC(CN1CCC(OC)C1)OCCCCO[C@H]1CC[C@@]2(C)C(=CCC3C2CC[C@@]2(C)C3CC[C@@H]2[C@H](C)CCCC(C)C)C1 (some centres unmarked)    103
CCCCC/C=C\C/C=C\CCCCCCCCOCC(CN1CCOCC1)OCCCCO[C@H]1CC[C@@]2(C)C(=CCC3C2CC[C@@]2(C)C3CC[C@@H]2[C@H](C)CCCC(C)C)C1 (some centres unmarked)    129
CCCCC/C=C\C/C=C\CCCCCCCCOCC(CN1CCC2(CC1)OCCO2)OCCOCCO[C@H]1CC[C@@]2(C)C(=CCC3C2CC[C@@]2(C)C3CC[C@@H]2[C@H](C)CCCC(C)C)C1 (some centres unmarked)    97
CCCCC/C=C\C/C=C\CCCCCCCCOCC(CN1CCC(O)C1)OCCOCCO[C@H]1CC[C@@]2(C)C(=CC[C@H]3[C@@H]4CC[C@H]([C@H](C)CCCC(C)C)[C@@]4(C)CC[C@@H]32)C1 (some centres unmarked)    100
CCCCC/C=C\C/C=C\CCCCCCCCOCC(CN1CCCC[C@@H]1C)OCCOCCO[C@H]1CC[C@@]2(C)C(=CCC3C2CC[C@@]2(C)C3CC[C@@H]2[C@H](C)CCCC(C)C)C1 (some centres unmarked)    143
CCCCC/C=C\C/C=C\CCCCCCCCOCC(CN1CCc2ccccc2C1)OCCOCCO[C@H]1CC[C@@]2(C)C(=CC[C@H]3[C@@H]4CC[C@H]([C@H](C)CCCC(C)C)[C@@]4(C)CC[C@@H]32)C1 (some centres unmarked)    71
CCCCC/C=C\C/C=C\CCCCCCCCOCC(CN1CCCC2CCCCC21)OCCOCCO[C@H]1CC[C@@]2(C)C(=CCC3C2CC[C@@]2(C)C3CC[C@@H]2[C@H](C)CCCC(C)C)C1 (some centres unmarked)    90
CCCCC/C=C\C/C=C\CCCCCCCCOCC(CN1CCSCC1)OCCOCCO[C@H]1CC[C@@]2(C)C(=CCC3C2CC[C@@]2(C)C3CC[C@@H]2[C@H](C)CCCC(C)C)C1 (some centres unmarked)    108
CCCCC/C=C\C/C=C\CCCCCCCCOCC(CN1CCCCC1)OC(=O)CCC(=O)O[C@H]1CC[C@@]2(C)C(=CCC3C2CC[C@@]2(C)C3CC[C@@H]2[C@H](C)CCCC(C)C)C1 (some centres unmarked)    122
CCCCC/C=C\C/C=C\CCCCCCCCOCC(CN1CCCC1)OCCOCCO[C@H]1CC[C@@]2(C)C(=CC[C@H]3[C@@H]4CC[C@H]([C@H](C)CCCC(C)C)[C@@]4(C)CC[C@@H]32)C1 (some centres unmarked)    164

Switching to the query record.
QUERY: # get_value(readout='Final size (nm)', item= CCCCC/C=C\C/C=C\CCCCCCCCOCC(CN1CCC(O[Si](C)(C)C(C)(C)C)C1)OCCOCCO[C@H]1CC[C@@]2(C)C(=CC[C@H]3[C@@H]4CC[C@H]([C@H](C)CCCC(C)C)[C@@]4(C)CC[C@@H]32)C1 (some centres unmarked) )
RESULT: 83

From: patent US9301923B2
